molecular target: UniProtKB P28335; assay: Human 5-HT2C functional assay (beta-arrestin2 recruitment, U2OS_HTR2C_β-Arrestin cells); conditions: U2OS_HTR2C_β-Arrestin cells, 1.5 h incubation; compounds used as acid addition salts; read-out: EC50 5-HT2C (potency in functional assay)
Sequence (P28335 33-458): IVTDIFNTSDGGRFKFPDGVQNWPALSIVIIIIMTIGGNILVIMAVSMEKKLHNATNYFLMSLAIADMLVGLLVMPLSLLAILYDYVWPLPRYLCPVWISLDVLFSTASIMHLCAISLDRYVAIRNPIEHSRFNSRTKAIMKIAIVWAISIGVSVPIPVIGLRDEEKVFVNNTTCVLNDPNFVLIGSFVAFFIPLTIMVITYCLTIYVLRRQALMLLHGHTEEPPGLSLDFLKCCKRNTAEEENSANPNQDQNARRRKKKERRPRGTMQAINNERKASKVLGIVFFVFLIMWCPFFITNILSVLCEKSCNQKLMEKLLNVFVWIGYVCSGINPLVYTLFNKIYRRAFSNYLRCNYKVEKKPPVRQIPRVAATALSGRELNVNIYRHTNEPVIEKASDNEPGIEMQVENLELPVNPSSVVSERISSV
Sequence (P32121 whole entry partner): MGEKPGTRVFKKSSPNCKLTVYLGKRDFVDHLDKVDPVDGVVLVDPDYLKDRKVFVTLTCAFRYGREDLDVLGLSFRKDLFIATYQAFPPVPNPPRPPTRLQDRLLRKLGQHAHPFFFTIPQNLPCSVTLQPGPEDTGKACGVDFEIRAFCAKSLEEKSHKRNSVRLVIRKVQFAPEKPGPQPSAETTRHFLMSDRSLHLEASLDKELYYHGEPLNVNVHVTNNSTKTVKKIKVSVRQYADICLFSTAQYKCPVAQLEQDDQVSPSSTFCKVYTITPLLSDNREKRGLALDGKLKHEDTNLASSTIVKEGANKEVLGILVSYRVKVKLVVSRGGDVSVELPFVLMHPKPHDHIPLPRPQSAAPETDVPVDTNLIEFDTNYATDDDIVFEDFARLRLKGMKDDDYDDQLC
measured.endpoint: EC50

| molecule | target.or.system | measured.endpoint | value.observed |
| --- | --- | --- | --- |
| COc1cc(OCCc2cccc(F)c2)c(F)cc1CNC(=O)[C@@H]1CCCN1 [Example 12] | UniProtKB P28335 | EC50 | 5 to 15 nM |

Batch lookup, EC50 per entry.
1. COc1cc(OC(C)C(F)(F)C(F)F)c(F)cc1CNC(=O)[C@@H]1CCCN1 (stereo partly drawn) [Example 22]
2. COc1cc(O[C@H]2CC[C@@H](F)CC2)c(F)cc1CNC(=O)[C@@H]1CCCN1 [Example 16]
3. COc1cc(OCC(F)(F)C(F)C(F)(F)F)c(F)cc1CNC(=O)[C@@H]1CCCN1 (stereo partly drawn) [Example 21]
4. COc1cc(OC2CCC(CF)CC2)c(F)cc1CNC(=O)[C@@H]1CCCN1 (stereo partly drawn) [Example 43]
5. COc1cc(OC2CCCC(C(F)(F)F)C2)c(F)cc1CNC(=O)[C@@H]1CCCN1 (stereo partly drawn) [Example 35]
6. COc1cc(OC2CCC(F)(F)CC2)c(F)cc1CNC(=O)[C@@H]1CCCN1C [Example 40]

Reply:
["5 to 15 nM", "15 to 30 nM", "< 5 nM", "15 to 30 nM", "< 5 nM", "15 to 30 nM"]

Batch lookup, EC50 per entry.
1. COc1cc(OCc2ccc(F)cc2)c(F)cc1CNC(=O)[C@@H]1CCCN1 [Example 3]
2. COc1cc(O[C@H]2CC[C@H](C(F)(F)F)CC2)c(F)cc1CNC(=O)[C@@H]1CCN1 [Example 41]
3. COc1cc(OCC(F)(F)C(F)F)c(F)cc1CNC(=O)[C@@H]1CCCN1 [Example 20]
4. [2H]C1([2H])NC([2H])(C(=O)NCc2cc(F)c(OC3CCC(C(F)(F)F)CC3)cc2OC)C([2H])([2H])C1([2H])[2H] (stereo not drawn) [Example 42]
5. COc1cc(OCCC(F)(F)C(F)(F)F)c(F)cc1CNC(=O)[C@@H]1CCCN1 [Example 24]

Reply:
["< 5 nM", "< 5 nM", "< 5 nM", "< 5 nM", "5 to 15 nM"]

Batch lookup, EC50 per entry.
1. COc1cc(OCC2CCC(F)(F)C2)c(F)cc1CNC(=O)[C@@H]1CCCN1 (stereo partly drawn) [Example 31]
2. COc1cc(OCCCC(F)(F)F)c(F)cc1CNC(=O)[C@@H]1CCCN1 [Example 23]
3. COc1cc(OCC2CCC(F)(F)CC2)c(F)cc1CNC(=O)[C@@H]1CCCN1 [Example 32]
4. COc1cc(OCc2ccnc(F)c2)c(F)cc1CNC(=O)[C@@H]1CCCN1 [Example 8]
5. COc1cc(OCC(F)(F)C(F)F)c(F)cc1CNC(=O)[C@@H]1CCCN1C [Example 36]
6. COc1cc(OC2CC(F)(F)C2)c(F)cc1CNC(=O)[C@@H]1CCCN1 [Example 28]

Reply:
5 to 15 nM
< 5 nM
5 to 15 nM
15 to 30 nM
15 to 30 nM
5 to 15 nM
